Target: Sex hormone-binding globulin (Homo sapiens)
Sequence (whole entry): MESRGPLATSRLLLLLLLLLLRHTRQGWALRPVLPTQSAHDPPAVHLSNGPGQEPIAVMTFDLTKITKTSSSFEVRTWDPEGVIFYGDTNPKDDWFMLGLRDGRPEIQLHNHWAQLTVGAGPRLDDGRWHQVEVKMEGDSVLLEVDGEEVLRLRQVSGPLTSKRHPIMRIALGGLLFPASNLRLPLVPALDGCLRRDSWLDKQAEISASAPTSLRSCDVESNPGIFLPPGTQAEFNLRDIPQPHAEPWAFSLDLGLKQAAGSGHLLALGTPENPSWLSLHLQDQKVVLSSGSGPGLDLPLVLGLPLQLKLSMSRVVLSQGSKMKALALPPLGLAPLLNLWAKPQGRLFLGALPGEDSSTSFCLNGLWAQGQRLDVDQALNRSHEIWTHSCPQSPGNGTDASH
Assay: Binding affinity against Sex steroid binding protein(SBP) of human serum
Parameters: reference not given here
Here the recorded relative binding affinity (RBA) is given for each entry.
METRIC: relative binding affinity (RBA)

{"RECORD SMILES": "C#C[C@]1(O)CC[C@H]2[C@@H]3CCc4cc(O)ccc4[C@H]3CC[C@@]21C", "TARGET DESC": "Sex hormone-binding globulin (Homo sapiens)", "METRIC": "relative binding affinity (RBA)", "MEASURED RESULT": 1.81}
{"RECORD SMILES": "C[C@]12CC[C@@H]3c4ccc(O)cc4CC[C@H]3[C@@H]1C[C@@H](F)[C@@H]2O", "TARGET DESC": "Sex hormone-binding globulin (Homo sapiens)", "METRIC": "relative binding affinity (RBA)", "MEASURED RESULT": 9.5}
{"RECORD SMILES": "CO[C@H]1C[C@]2(C)[C@@H](O)[C@H](F)C[C@H]2[C@@H]2CCc3cc(O)ccc3[C@H]21", "TARGET DESC": "Sex hormone-binding globulin (Homo sapiens)", "METRIC": "relative binding affinity (RBA)", "MEASURED RESULT": 0.53}

###

Each item that follows carries a reported relative binding affinity (RBA).
biological target: Sex hormone-binding globulin (Homo sapiens); assay: Binding affinity against Sex steroid binding protein(SBP) of human serum; parameters: reference not given here
METRIC: relative binding affinity (RBA)

{"RECORD SMILES": "CC[C@H]1C[C@]2(C)[C@@H](O)[C@H](F)C[C@H]2[C@@H]2CCc3cc(O)ccc3[C@@H]12", "TARGET DESC": "Sex hormone-binding globulin (Homo sapiens)", "MEASURED RESULT": 2.24}
{"RECORD SMILES": "CC[C@H]1C[C@]2(C)[C@@H](O)CC[C@H]2[C@@H]2CCc3cc(O)ccc3[C@@H]12", "TARGET DESC": "Sex hormone-binding globulin (Homo sapiens)", "MEASURED RESULT": 40.8}
{"RECORD SMILES": "CO[C@H]1C[C@]2(C)[C@@H](O)CC[C@H]2[C@@H]2CCc3cc(O)ccc3[C@H]21", "TARGET DESC": "Sex hormone-binding globulin (Homo sapiens)", "MEASURED RESULT": 1.72}
{"RECORD SMILES": "C#C[C@]1(O)[C@H](F)C[C@H]2[C@@H]3CCc4cc(O)ccc4[C@H]3CC[C@@]21C", "TARGET DESC": "Sex hormone-binding globulin (Homo sapiens)", "MEASURED RESULT": 0.43}
{"RECORD SMILES": "C[C@]12CC[C@@H]3c4ccc(O)cc4CC[C@H]3[C@@H]1CC[C@@H]2O", "TARGET DESC": "Sex hormone-binding globulin (Homo sapiens)", "MEASURED RESULT": 100}

###

target: Alpha-fetoprotein (Rattus norvegicus) (UniProt P02773); assay: Binding affinity against Alphafetoprotein (AFP), in rodents.; design: reference not given here
Sequence (P02773 whole entry): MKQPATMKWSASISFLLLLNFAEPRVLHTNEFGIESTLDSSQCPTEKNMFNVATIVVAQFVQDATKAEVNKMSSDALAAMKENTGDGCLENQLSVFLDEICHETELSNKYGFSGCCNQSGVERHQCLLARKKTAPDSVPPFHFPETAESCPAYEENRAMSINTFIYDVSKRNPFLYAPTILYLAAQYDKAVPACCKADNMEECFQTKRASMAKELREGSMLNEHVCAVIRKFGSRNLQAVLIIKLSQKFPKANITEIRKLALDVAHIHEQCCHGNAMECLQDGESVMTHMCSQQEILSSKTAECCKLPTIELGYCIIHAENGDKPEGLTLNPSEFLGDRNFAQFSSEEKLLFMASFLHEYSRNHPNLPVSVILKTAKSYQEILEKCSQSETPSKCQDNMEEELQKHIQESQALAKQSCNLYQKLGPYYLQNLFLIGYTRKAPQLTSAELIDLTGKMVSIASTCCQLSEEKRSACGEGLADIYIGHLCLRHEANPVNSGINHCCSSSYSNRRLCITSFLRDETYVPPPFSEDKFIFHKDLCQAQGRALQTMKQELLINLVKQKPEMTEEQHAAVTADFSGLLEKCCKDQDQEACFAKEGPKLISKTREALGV

{"RECORD SMILES": "CO[C@H]1C[C@]2(C)[C@@H](O)[C@H](F)C[C@H]2[C@@H]2CCc3cc(O)ccc3[C@H]21", "relative binding affinity (RBA)": 0.51}
{"RECORD SMILES": "CO[C@H]1C[C@]2(C)[C@@H](O)CC[C@H]2[C@@H]2CCc3cc(O)ccc3[C@H]21", "relative binding affinity (RBA)": 0.26}
{"RECORD SMILES": "CC[C@H]1C[C@]2(C)[C@@H](O)CC[C@H]2[C@@H]2CCc3cc(O)ccc3[C@@H]12", "relative binding affinity (RBA)": 1.21}
{"RECORD SMILES": "C#C[C@]1(O)[C@H](F)C[C@H]2[C@@H]3CCc4cc(O)ccc4[C@H]3CC[C@@]21C", "relative binding affinity (RBA)": 0.94}

###

Reported relative binding affinity (RBA) values are given for each entry in this list.
molecular target: Alpha-fetoprotein (Rattus norvegicus); experiment: Binding affinity against Alphafetoprotein (AFP), in rodents.; design: reference not given here
METRIC: relative binding affinity (RBA)

{"RECORD SMILES": "C[C@]12CC[C@@H]3c4ccc(O)cc4CC[C@H]3[C@@H]1CC[C@@H]2O", "METRIC": "relative binding affinity (RBA)", "MEASURED RESULT": 100}
{"RECORD SMILES": "C#C[C@]1(O)CC[C@H]2[C@@H]3CCc4cc(O)ccc4[C@H]3CC[C@@]21C", "METRIC": "relative binding affinity (RBA)", "MEASURED RESULT": 3.51}
{"RECORD SMILES": "C[C@]12CC[C@@H]3c4ccc(O)cc4CC[C@H]3[C@@H]1C[C@@H](F)[C@@H]2O", "METRIC": "relative binding affinity (RBA)", "MEASURED RESULT": 101}
{"RECORD SMILES": "CC[C@H]1C[C@]2(C)[C@@H](O)[C@H](F)C[C@H]2[C@@H]2CCc3cc(O)ccc3[C@@H]12", "METRIC": "relative binding affinity (RBA)", "MEASURED RESULT": 1.47}
